# solubility_mean per entry
test_name: In vitro kinetic solubility
recorded_conditions: In vitro kinetic solubility, ph 7.4
Give a bare numeral; the unit µM is implied.

CNCc1cc(-c2cc3c(N[C@H](c4ccc5c(c4)S(=O)(=O)CCC5)C(C)C)ncnc3[nH]2)co1 (single isomer, unassigned) [ASAP-0011169]    358
CC(C)[C@H](Nc1ncnc2[nH]c(-c3cnn(CC(N)=O)c3)cc12)c1ccc2c(c1)OCCO2 (single isomer, unassigned) [ASAP-0008450]    332
CC(C)(C)[C@H](Nc1ncnc2[nH]c(-c3cnn(CC(N)=O)c3)cc12)c1ccc2c(n1)OCCO2 (single isomer, unassigned) [ASAP-0011159]    372

Incoming: Dear colleague, I am looking for the recorded solubility_mean of the following compound: CNC(=O)c1cc2c(N[C@H](c3ccc4c(c3)S(=O)(=O)CCC4)C(C)C)ncnc2[nH]1 (single isomer, unassigned) [ASAP-0012340]
Outgoing: 374

Incoming: Return reported solubility_mean; argument: CC(C)[C@@H](Nc1ncnc2[nH]c(-c3cnn(C)c3)cc12)c1ccc2c(c1)S(=O)(=O)NCC2 [ASAP-0011192]
Outgoing: 105

Incoming: For CC(C)[C@H](Nc1ncnc2[nH]c(-c3cnn(CC(=O)N(C)C)c3)cc12)c1ccc2c(c1)OCCO2 (single isomer, unassigned) [ASAP-0013837] , what is its reported solubility_mean?
Outgoing: 205
